FYI, the data here is from patent EP1652858A1.

- TESTED TARGET: HLA-B0702 (human)
- PROCEDURE DETAILS: competition vs labelled reference peptide
Property: pKi; scope: individual binders
Worth noting: pKi values are minus log10 of concentrations stated in mol/L.

Need pKi, item AAKLSALGL (modifications not checked)
6.56

Need pKi, item APTGSGKST (modifications not checked)
6.43

Need pKi, item TPGERPSGM (modifications not checked)
6.70
